B1: TPR 5TU (parent)
chain: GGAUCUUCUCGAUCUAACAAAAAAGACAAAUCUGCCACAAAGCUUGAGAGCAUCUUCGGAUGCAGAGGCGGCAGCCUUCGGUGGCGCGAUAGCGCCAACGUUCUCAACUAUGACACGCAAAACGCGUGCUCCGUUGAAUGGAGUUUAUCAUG

Variants of: B1
Assay: polymerase ribozyme fitness, log enrichment relative to wild type (log ratio); higher = more active; in vitro selection for triplet polymerase activity
Fewer inactive variants are shown than the library holds.
Answer -1 if polymerase ribozyme fitness (log ratio) is under -2, and 1 if it is -2 or more.

Would you please look over these solved cases?
U55A U77C C105A A107U U127G A137C : -1
C69U C76G : -1
A49C G68A C96U A98C C108G : -1
C32A C85U : -1
U6C A40U U56A G59U C87U A98U C118U : 1

Please look at the following variant next.
Evaluate C76U G81A C99U : polymerase ribozyme fitness (log ratio) at minimum -2? 1
